Test system: 598228-144-R-J1-PDC complex spheroids, viability;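 further: spheroids exposed to compounds for seven days before readout; 100% = DMSO vehicle control wells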
Experiment: Anticancer human tumor 598228-144-R-J1-PDC patient-derived serous endometrial adenocarcinoma cell line growth inhibition [CLK]
Details: second compound 1 µM; first compound 0.3 µM; active compounds read low
Recorded viability, T/C for the following molecules

Example entries and their recorded answers appear below.
[
  {
    "molecule": "CC(C)CC(NC(=O)C(Cc1ccccc1)NC(=O)c1cnccn1)B(O)O (stereo not drawn) + CNC(=O)c1ccc(Nc2nc(OC3CCCC3)c3c(-c4ccc5nc(C)oc5c4)c[nH]c3n2)c(OC)c1",
    "viability, T/C": "1.17%"
  },
  {
    "molecule": "NC(=O)C(=Cn1cnc(-c2cc(C(F)(F)F)cc(C(F)(F)F)c2)n1)c1cncnc1 + CNC(=O)c1ccc(Nc2nc(OC3CCCC3)c3c(-c4ccc5nc(C)oc5c4)c[nH]c3n2)c(OC)c1",
    "viability, T/C": "55.4%"
  }
]

Below: the item to evaluate.
Problem: Any idea what viability, T/C was measured for CC(C)CC(NC(=O)C(Cc1ccccc1)NC(=O)c1cnccn1)B(O)O (stereo not drawn) + CN1CCN(c2cc(C(=O)Nc3cc4cc(-c5cnn(C)c5)ccc4cn3)ccn2)CC1 ?
Solution: 4.83%
